assay: yeast display, Sf9 membrane polyspecificity reagent, FACS + sequencing; frameworks hold sequencing errors
endpointName: polyreactivity (PSR sort gate)

Example sequences with recorded polyreactivity (PSR sort gate):
{"columns": ["seqText", "polyreactivity (PSR sort gate)"],
 "data": [
  ["QVQLVESGGGLVQAGGSLRLSCAASGSTFSDNAMGGYRQAPGKERELVAAINETGGSTYYADSVKGRFTISRDNAKNTVYLQMNSLKPEDTAVYYCNADIDPYGATYAIEYDYWGQGTQVTVSS", "low polyreactivity"],
  ["QVQLVESGGGLVQAGGSLRLSCAASGSTFGLYTMGWYRQAPGKARELVAVINRSGGSTYYADSVKGRFTISRDNAKNTVYLQMNSLKPEDTAVYYCAAQRAVAGGRLDYWGQGTQVTVSS", "high polyreactivity"],
  ["QVQLVESGGGLVQAGGSLRLSCAASGYIFYAYAMGWSRQAPGKERELVAAISSGGGRTYYADSVKGRFTISRDNAKNTVYLQMNSLKPEDTAVYYCAARRRDRGEYYYWGQGTQVTVSS", "high polyreactivity"],
  ["QVQLVQSWGGLVQAGGSLRLICAASGSIIAYNAMGWYRQAPGKEREMVAAITISGGSTYYADSVKGRFTISRDNAKNNVYLQMNSLKPEDTAVYYSAAAIPGARSRRSYGKYFYWGQGTQVTVSS", "low polyreactivity"]
]}

Alright, here's another sequence for you.
The reported value for QVQLVESGGGLVQAGGSLRLSCAASGRIFPLYAMGWSRQAPGKERELVAAITSSGGSTYYADSVKGRFTISRDNAKNTVYLQMNSLKPEDTAVYYCAADYSVYWLDYGYWGQGTLVTVSS in terms of polyreactivity (PSR sort gate) is low polyreactivity
